Origin of values: paper PMC8533149

assay: Cytotoxicity test; type: cell-based; details: human, MT4 cells (human T cell leukemia), Figure 7
metric: CC50 at 9 days (nM)
Write down the numeric answer in nM and omit the unit.

{"molecule": "COc1cc(/C=C2N=C(/C=C/C=C/c3ccc(N(C)C)cc3)N(C)C\\2=O)cc(OC)c1O [N1195]", "CC50 at 9 days (nM)": 6000}
{"molecule": "COc1cc(/C=C2N=C(/C=C/c3cc(OC)c(O)c(OC)c3)N(C)C\\2=O)cc(OC)c1O [N1193]", "CC50 at 9 days (nM)": 2000}

# ---- query molecule ----
CC50 at 9 days reading for COc1c(O)ccc(/C=C2N=C(/C=C/c3cc(Cl)nc(Cl)c3)N(C)C\2=O)c1OC [N1198] : 3000

###

test system: Pu39 G4 (G-rich region of the P1 promoter of BCL-2); experiment: FRET melting assay, Pu39; type: binding, human; details: Table S2, primary screening lead compounds, 50:1
metric: ΔTm Pu39 (°C)
Provide only the numeric value, understood in °C.

{"compound": "COc1c(O)ccc(/C=C2N=C(/C=C/c3ccncc3)N(C)C\\2=O)c1OC", "result-units": "°C", "measured": 0}

The recorded ΔTm Pu39 for entry COc1ccc(/C=C/C2=NC(=C\c3ccc(O)cc3OC)/C(=O)N2C)cc1 equals 2.1

Reported ΔTm Pu39 ( COc1cc(/C=C2N=C(/C=C/c3ccncc3)N(C)C\2=O)cc(OC)c1O ) = -0.7

So, COc1ccc(OC)c(/C=C2N=C(/C=C/c3ccncc3)N(C)C\2=O)c1 ? Its ΔTm Pu39 was 0.1

Recorded ΔTm Pu39 (compound COc1ccc(O)c(/C=C2N=C(/C=C/c3ccncc3)N(C)C\2=O)c1 ): 0.7

The compound COc1cc(O)ccc1/C=C1N=C(/C=C/c2ccnc3ccccc23)N(C)C\1=O showed ΔTm Pu39 equal to 0.8

The value of ΔTm Pu39 measured for the compound COc1cc(/C=C2N=C(/C=C/c3cc(Cl)nc(Cl)c3)N(C)C\2=O)cc(OC)c1O [N 960a] turned out to be 0.5

The reported ΔTm Pu39 of the compound CN1C(=O)/C(=C/c2cc[n+](C)cc2)N=C1c1ccccc1 was -1

Lab book: ΔTm Pu39 of COc1cc(/C=C2N=C(/C=C/c3cc(Br)c(O)c(Br)c3)N(C)C\2=O)cc(OC)c1O noted as 0.9

Form field ΔTm Pu39, entry COc1ccc(/C=C2\N=C(CC(C)C)C(=O)N(O)C2=O)cc1 : -1.5

Recorded result, CCNc1ccc(/C=C2\N=C(C)N(C)C2=O)cc1 , ΔTm Pu39: 1.4

###

system: HIV-1 LTR-III G-quadruplex (FAM/TAMRA-labeled LTR-III); test: FRET melting assay, LTR-III G4; type: binding; conditions: Table S1 primary screening, ligand:ODN 50:1, singlicate
Okay, here is how we bin by LTR-III ΔTm: LOW (below -0.3 °C), MID (-0.3 °C to below 0.3 °C), HIGH (0.3 °C or more)

{"compound": "CCn1nnc2c(Nc3ccccc3)cccc2c1=O [M 958A]", "tested-system": "HIV-1 LTR-III G-quadruplex (FAM/TAMRA-labeled LTR-III)", "label-class": "LOW"}
{"compound": "CN1C(=O)C(=Cc2ccc(O)cc2N(C)C)N=C1C=Cc1ccncc1", "tested-system": "HIV-1 LTR-III G-quadruplex (FAM/TAMRA-labeled LTR-III)", "label-class": "HIGH"}
{"compound": "CCNc1ccc(/C=C2\\N=C(C)N(C)C2=O)cc1", "tested-system": "HIV-1 LTR-III G-quadruplex (FAM/TAMRA-labeled LTR-III)", "label-class": "HIGH"}
{"compound": "CC1=NC(=CC=Cc2ccc(O)cc2)C(=O)N1C", "tested-system": "HIV-1 LTR-III G-quadruplex (FAM/TAMRA-labeled LTR-III)", "label-class": "LOW"}
{"compound": "COc1cc(O)ccc1/C=C1N=C(/C=C/c2cccs2)N(C)C\\1=O", "tested-system": "HIV-1 LTR-III G-quadruplex (FAM/TAMRA-labeled LTR-III)", "label-class": "HIGH"}

Exam item: For CC1=NC(=Cc2ccncc2)C(=O)N1CCNC(=O)OC(C)(C)C , which LTR-III ΔTm bin applies?
Marked response: MID

Exam item: assign CN(C)C=CC1=NC(=Cc2ccc(O)cc2)C(=O)N1C [M 995a] to the correct category.
Marked response: MID

Exam item: Hi, small favor: classify CC(C)OC(=O)c1noc(=O)c(O)c1-c1ccc(N(C)C)cc1 [SA 305C] by its LTR-III ΔTm when you get a moment.
Marked response: LOW

###

system: HIV-1 LTR-III G-quadruplex (FAM/TAMRA-labeled LTR-III); test: FRET melting assay, LTR-III G4; format: binding; details: Table S1 primary screening, ligand:ODN 50:1, singlicate
metric: LTR-III ΔTm (°C)
Give just the number in °C; leave the unit off.

{"compound": "Oc1ccc2cc(Br)ccc2c1 [N 576.3]", "LTR-III ΔTm / °C": 0}
{"compound": "CC1=NC(=Cc2ccc(O)c(C(=O)O)c2)C(=O)N1C [SV 51.1]", "LTR-III ΔTm / °C": -0.4}
{"compound": "CC1=NC(=Cc2ccc(C#N)cc2)C(=O)N1C [SA 433]", "LTR-III ΔTm / °C": -0.4}
{"compound": "CC1=NC(=Cc2c[nH]c3cccc(C)c23)C(=O)N1C [M 1974]", "LTR-III ΔTm / °C": 0}

Lab book: LTR-III ΔTm of CC(=O)C1=NC(=Cc2ccc(O)cc2)C(=O)N1C [X 18] noted as 0.6

For COc1ccc2cc(CO)ccc2c1 [N 49] the compound record lists LTR-III ΔTm as -0.1

Just so you know, measured LTR-III ΔTm for CCNc1ccc2cc(Br)ccc2c1 [N 576.2] came out at 0

According to the records, this compound CC1=NC(=Cc2cc3c4c(c2)CCCN4CCC3)C(=O)N1C [X 4] displays LTR-III ΔTm of 1

Given item O=C1NC(=S)SC1=Cc1cc(Cl)c(O)c(Cl)c1 [SAI 127] , the value recorded as its LTR-III ΔTm is -0.2

The value of LTR-III ΔTm measured for the compound CC1=NC(=Cc2ccc3[nH]c(C)c(C)c3c2)C(=O)N1C [N 792] turned out to be 0.2

The measured LTR-III ΔTm associated with COc1ccc(/C=C2N=C(/C=C/N3CCOCC3)N(C)C\2=O)cc1 [M 2371c] reads -0.1

###

tested on: HIV-1 LTR-III G-quadruplex (FAM/TAMRA-labeled LTR-III); experiment: FRET melting assay, LTR-III G4; type: binding; details: Table S1 primary screening, ligand:ODN 50:1, singlicate
LTR-III ΔTm overview
Reply with just the number (in °C).

{"molecule": "COc1ccc(O)c(C=C2N=C(C=Cc3cc(Br)c(O)c(Br)c3)N(C)C2=O)c1 [N 851B]", "LTR-III ΔTm / °C": 1.2}
{"molecule": "CN1C(=O)C(=Cc2ccc(O[Si](c3ccccc3)(c3ccccc3)C(C)(C)C)cc2)N=C1c1ccccc1 [Amm 75]", "LTR-III ΔTm / °C": -0.3}
{"molecule": "COc1cc(O)ccc1C=C1N=C(c2cccs2)N(C)C1=O [SH 016.3B]", "LTR-III ΔTm / °C": 0.9}
{"molecule": "CCN1C(=O)C(=CC=Cc2ccc(O)cc2)N=C1C [M 1379.2]", "LTR-III ΔTm / °C": -0.2}
{"molecule": "CC(C)OC(=O)c1noc(C(=O)N2CCOCC2)c1-c1ccc(C(C)C)cc1 [SA 342A]", "LTR-III ΔTm / °C": -0.3}

Log: HIV-1 LTR-III G-quadruplex (FAM/TAMRA-labeled LTR-III), molecule CC1=NC(=C(N)c2ccccc2)C(=O)N1C [ZS 109] , LTR-III ΔTm = -0.7

HIV-1 LTR-III G-quadruplex (FAM/TAMRA-labeled LTR-III) assay, molecule CC(C)OC(=O)c1noc(C(=O)NC2CCCCC2)c1-c1ccccc1F [SA 331D] , recorded LTR-III ΔTm = -0.7

For CCOC(=O)CN1C(=O)C(=Cc2cc3c4c(c2)CCCN4CCC3)N=C1C [M 1343] on HIV-1 LTR-III G-quadruplex (FAM/TAMRA-labeled LTR-III), measured LTR-III ΔTm was 0

Item CC1=NC(=Cc2cccc(O)c2)C(=O)N1C [M 1300] was tested on HIV-1 LTR-III G-quadruplex (FAM/TAMRA-labeled LTR-III); the reported LTR-III ΔTm is 0.2

Assay HIV-1 LTR-III G-quadruplex (FAM/TAMRA-labeled LTR-III), sample Cc1cc(/C=C2\SC(=S)NC2=O)ccc1O [HMBR] , LTR-III ΔTm read: -0.6

With HIV-1 LTR-III G-quadruplex (FAM/TAMRA-labeled LTR-III) as the test system, CC1=NC(=Cc2cccc(C(F)(F)F)c2)C(=O)N1C [M 2375] showed LTR-III ΔTm of -0.2

For CC(C)OC(=O)c1noc(=O)c(O)c1-c1ccccc1 [SA 300A] on HIV-1 LTR-III G-quadruplex (FAM/TAMRA-labeled LTR-III), measured LTR-III ΔTm was 0.1
